# assayTarget: human TLR7 (Homo sapiens, UniProt Q9NYK1)
# Sequence (Q9NYK1 27-1049): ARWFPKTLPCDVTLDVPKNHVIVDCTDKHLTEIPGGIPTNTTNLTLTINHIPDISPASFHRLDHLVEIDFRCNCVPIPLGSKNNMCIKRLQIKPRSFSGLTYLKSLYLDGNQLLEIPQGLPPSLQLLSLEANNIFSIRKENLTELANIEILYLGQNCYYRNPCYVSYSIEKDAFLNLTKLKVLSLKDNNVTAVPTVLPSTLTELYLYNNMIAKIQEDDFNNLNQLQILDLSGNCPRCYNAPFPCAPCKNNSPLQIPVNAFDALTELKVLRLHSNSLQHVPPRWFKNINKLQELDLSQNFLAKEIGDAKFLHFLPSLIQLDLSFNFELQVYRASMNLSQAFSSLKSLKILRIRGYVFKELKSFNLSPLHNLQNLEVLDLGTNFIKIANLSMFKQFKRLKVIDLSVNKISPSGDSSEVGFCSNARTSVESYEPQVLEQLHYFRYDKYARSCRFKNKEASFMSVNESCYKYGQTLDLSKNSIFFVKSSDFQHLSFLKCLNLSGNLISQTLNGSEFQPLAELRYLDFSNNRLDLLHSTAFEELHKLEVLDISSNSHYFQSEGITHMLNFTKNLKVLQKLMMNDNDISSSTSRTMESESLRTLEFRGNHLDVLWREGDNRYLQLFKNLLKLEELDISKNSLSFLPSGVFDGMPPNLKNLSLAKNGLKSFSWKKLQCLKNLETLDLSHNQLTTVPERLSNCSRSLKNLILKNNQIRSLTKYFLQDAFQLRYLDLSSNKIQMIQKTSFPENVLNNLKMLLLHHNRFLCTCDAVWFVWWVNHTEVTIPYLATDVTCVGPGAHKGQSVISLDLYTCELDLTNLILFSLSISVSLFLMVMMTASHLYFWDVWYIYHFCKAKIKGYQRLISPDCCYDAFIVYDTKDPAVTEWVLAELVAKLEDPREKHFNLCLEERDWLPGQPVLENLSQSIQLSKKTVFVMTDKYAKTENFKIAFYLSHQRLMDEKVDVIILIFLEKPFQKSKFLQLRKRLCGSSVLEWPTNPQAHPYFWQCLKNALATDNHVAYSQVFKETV
# measurementProtocol: HEK293-Blue-hTLR-7 cells assay (SEAP reporter, R848 stimulation)
# settings: HEK293-Blue-hTLR7 cells, R848, 20 hrs; read-out: HEK/hTLR7 IC50
metricName: IC50 (nM)

Some solved cases for reference:
[[record]]
compound = "C[C@@H]1CN(c2ccc(C#N)c3ncccc23)C[C@H](CN2CCN(c3ccnc(N4C[C@@H](N)[C@H](F)C4)n3)CC2)O1 [Example 96]"
number = 18

[[record]]
compound = "Cc1cc(N2CCN(C[C@H]3CN(c4ccc(C#N)c5ncccc45)C[C@@H](C)O3)CC2)nc(N2CC3(CNCCO3)C2)n1 [Example 61]"
number = 8


1. C[C@@H]1CN(c2ccc(C#N)n3nccc23)C[C@H](CN2CC(c3ccc(N4CC(C)(N)C4)cc3)C2)O1 [Example 163]
2. C[C@@H]1CN(c2ccc(C#N)c3ncccc23)C[C@H](CN2CCN(c3ccccc3C3CNCCO3)CC2)O1 (stereo partly shown) [Example 89]
Q. Which value of IC50 is smaller, the one for 1 or the one for 2 ? I would appreciate it if you answered with the label of your choice.
A. 2
(2: 6 nM, 1: 22 nM)

---

# assayTarget: CYP2D6 (Homo sapiens)
# Construct: tissue BD-Gentest 452117; host or cells: human liver microsomes
# Sequence (P10635 whole entry): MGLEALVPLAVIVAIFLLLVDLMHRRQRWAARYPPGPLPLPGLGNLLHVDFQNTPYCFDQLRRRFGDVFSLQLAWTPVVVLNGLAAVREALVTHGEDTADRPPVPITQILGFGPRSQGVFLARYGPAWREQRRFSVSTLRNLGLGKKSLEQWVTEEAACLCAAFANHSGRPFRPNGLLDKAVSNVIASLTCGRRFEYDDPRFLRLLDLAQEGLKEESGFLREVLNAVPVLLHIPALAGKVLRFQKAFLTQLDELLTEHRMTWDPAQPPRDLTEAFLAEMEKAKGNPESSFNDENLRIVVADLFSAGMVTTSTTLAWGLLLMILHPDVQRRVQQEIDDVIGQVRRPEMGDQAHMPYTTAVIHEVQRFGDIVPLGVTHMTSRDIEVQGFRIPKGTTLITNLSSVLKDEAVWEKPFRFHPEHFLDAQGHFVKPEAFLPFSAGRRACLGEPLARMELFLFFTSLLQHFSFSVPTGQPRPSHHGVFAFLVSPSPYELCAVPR
# measurementProtocol: CYP inhibition assay in human liver microsome, CYP2D6
# Format: in vitro ADME
# settings: human, human liver microsomes, probe dextromethorphan 5 μM, substrate dextromethorphan 5 μM, second value of 2C9/2D6/3A4
metricName: inhibition at 10 min, 10 µM (%)

Some solved cases for reference:
[[record]]
compound = "Cc1ccc(N2C[C@H](CN3CCN(c4nccc(N5CCNCC5)n4)CC3)O[C@H](C)C2)c2nccnc12 [Example 116]"
readoutunits = "%"
number = 10

[[record]]
compound = "C[C@@H]1CN(c2ccc(C#N)c3nccnc23)C[C@H](CN2CCN(c3nccc(N4C[C@@H](N)[C@H](F)C4)n3)CC2)O1 [Example 119]"
readoutunits = "%"
number = -8.5

[[record]]
compound = "[2H]c1ccc2c(N3C[C@H](CN4CCN(c5ccc(N6C[C@@H](N)[C@H](OC)C6)nc5)CC4)O[C@H](C)C3)ccc(C#N)c2n1 [Example 143]"
readoutunits = "%"
number = -30

[[record]]
compound = "C[C@@H]1CN(c2ccc(C#N)n3ncc(F)c23)C[C@H](CN2CC(c3ccc(N4CC(C)(N)C4)cc3)C2)O1 [Example 160]"
readoutunits = "%"
number = 17

[[record]]
compound = "C[C@@H]1CN(c2ccc(C#N)c3ncccc23)C[C@H](CN2CCN(c3ccnc(N[C@H]4CNC[C@H]4F)n3)CC2)O1 [Example 24]"
readoutunits = "%"
number = 6


a. C[C@@H]1CN(c2ccc(C#N)c3ncccc23)C[C@H](CN2CCN(c3cccc(NC4CNC4)n3)CC2)O1 [Example 38]
b. C[C@@H]1CN(c2ccc(C#N)c3ncccc23)C[C@H](CN2CC(c3ccc(N4CCNCC4)cc3)C2)O1 [Example 3]
c. CO[C@H]1CN(c2nc(C)cc(N3CCN(C[C@H]4CN(c5ccc(C#N)c6nccnc56)C[C@@H](C)O4)CC3)n2)C[C@@H]1N [Example 106]
Q. Put the items in sequence by inhibition at 10 min, 10 µM, from largest down. Returns: the labels arranged in the requested order.
A. a, b, c

A. [2H]c1nc2c(C#N)ccc(N3C[C@H](CN4CCN(c5nc(C)cc(N6CC(N)C6)n5)CC4)O[C@H](C)C3)c2nc1[2H] [Example 124]
B. C[C@@H]1CN(c2ccc(C#N)c3ncccc23)C[C@H](CN2CCN(c3ccnc(N4CCN(C)CC4)n3)CC2)O1 [Example 22]
C. COC1CN(c2ccc(N3CCN(C[C@H]4CN(c5ccc(C#N)c6ncccc56)C[C@@H](C)O4)CC3)cn2)CC1N (some centres unmarked) [Example 43]
D. C[C@@H]1CN(c2ccc(C#N)c3ncccc23)C[C@H](CN2CCC(c3cccc(C4CCNCC4)c3)CC2)O1 [Example 2]
E. [2H]c1ccc2c(N3C[C@H](CN4CCN(c5nc(C)cc(N6C[C@H](OC)[C@@H](N)C6)n5)CC4)O[C@H](C)C3)ccc(C#N)c2n1 [Example 134]
Q. Please produce an ascending ranking of these compounds based on inhibition at 10 min, 10 µM. Returns: the labels arranged in the requested order.
A. C, E, B, A, D
(C: -11%, E: -4%, B: 2%, A: 9.5%, D: 20%)

---

# assayTarget: hTLR9 (Homo sapiens, UniProt Q9NR96)
# Sequence (Q9NR96 26-1032): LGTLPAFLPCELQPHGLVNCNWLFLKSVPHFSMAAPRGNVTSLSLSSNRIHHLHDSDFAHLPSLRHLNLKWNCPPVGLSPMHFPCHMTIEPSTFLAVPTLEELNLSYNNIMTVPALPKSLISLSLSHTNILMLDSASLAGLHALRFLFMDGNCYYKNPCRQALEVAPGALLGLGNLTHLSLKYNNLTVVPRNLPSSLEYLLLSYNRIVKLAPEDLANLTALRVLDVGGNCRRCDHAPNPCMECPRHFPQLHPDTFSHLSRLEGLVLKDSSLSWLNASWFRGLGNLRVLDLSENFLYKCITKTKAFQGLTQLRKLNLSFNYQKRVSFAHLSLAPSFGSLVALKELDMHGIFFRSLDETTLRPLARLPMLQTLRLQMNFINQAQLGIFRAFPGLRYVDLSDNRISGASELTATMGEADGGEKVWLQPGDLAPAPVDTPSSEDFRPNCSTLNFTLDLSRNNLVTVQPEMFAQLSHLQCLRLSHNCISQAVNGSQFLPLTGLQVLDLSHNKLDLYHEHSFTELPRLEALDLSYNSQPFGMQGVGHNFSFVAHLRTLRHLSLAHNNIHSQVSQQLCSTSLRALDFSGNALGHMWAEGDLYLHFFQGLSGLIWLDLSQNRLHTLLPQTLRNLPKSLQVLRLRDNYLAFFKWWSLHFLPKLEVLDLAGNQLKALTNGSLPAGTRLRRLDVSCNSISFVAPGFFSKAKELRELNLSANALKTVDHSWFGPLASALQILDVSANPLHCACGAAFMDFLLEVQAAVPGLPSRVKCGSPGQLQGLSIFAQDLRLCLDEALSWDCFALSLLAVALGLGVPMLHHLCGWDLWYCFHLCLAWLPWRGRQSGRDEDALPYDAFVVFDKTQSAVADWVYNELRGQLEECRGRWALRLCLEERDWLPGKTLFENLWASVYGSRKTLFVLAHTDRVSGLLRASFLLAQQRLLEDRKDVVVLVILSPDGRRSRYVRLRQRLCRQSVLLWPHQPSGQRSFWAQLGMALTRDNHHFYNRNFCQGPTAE
# measurementProtocol: HEK293-Blue-hTLR-9 cells assay (SEAP reporter, ODN2006 stimulation)
# Format: cell-based
# Parameters: host or cells: HEK293 (HEK-Blue hTLR9)
# settings: HEK293-Blue-hTLR9 cells, ODN2006, 20 hrs; read-out: HEK/hTLR9 IC50
metricName: IC50 (µM)

[[record]]
compound = "COC1CCN(c2nccc(N3CCN(C[C@H]4CN(c5ccc(C#N)c6ncccc56)C[C@@H](C)O4)CC3)n2)CC1N (stereo partly shown) [Example 109]"
metricname = "IC50"
number = 0.046


a. Cc1ccc(N2C[C@H](CN3CCN(c4ccnc(N5CCN[C@@H](C)C5)n4)CC3)O[C@H](C)C2)c2nccnc12 [Example 127]
b. C[C@@H]1CN(c2ccc(C#N)c3ncccc23)C[C@H](CN2CCN(c3nccc(N4CCNCC4)n3)CC2)O1 [Example 14]
c. Cc1cc(N2CCN(C[C@H]3CN(c4ccc(C#N)c5nccnc45)C[C@@H](C)O3)CC2)nc(N2CC(N)C2)n1 [Example 112]
Q. Put the items in sequence by IC50, from largest down. Returns: the labels arranged in the requested order.
A. a, c, b

---

# assayTarget: human TLR7 (Homo sapiens, UniProt Q9NYK1)
# measurementProtocol: HEK293-Blue-hTLR-7 cells assay (SEAP reporter, R848 stimulation)
# settings: HEK293-Blue-hTLR7 cells, R848, 20 hrs; read-out: HEK/hTLR7 IC50
pIC50: −log10 of the molar value.
metricName: pIC50

Some solved cases for reference:
[[record]]
molecule = "C[C@@H]1CN(c2cc(=O)n(C)c3ncccc23)C[C@H](CN2CC(c3ccc(N4CC(F)[C@H](N)C4)cc3)C2)O1 (stereo in doubt) [Example 174]"
assaytarget = "human TLR7 (Homo sapiens, UniProt Q9NYK1)"
metricname = "pIC50"
number = 7.33

[[record]]
molecule = "[2H]c1ccc2c(N3C[C@H](CN4CCN(c5nc(C)cc(N6C[C@H](OC)[C@@H](N)C6)n5)CC4)O[C@H](C)C3)ccc(C#N)c2n1 [Example 134]"
assaytarget = "human TLR7 (Homo sapiens, UniProt Q9NYK1)"
metricname = "pIC50"
number = 7.60

[[record]]
molecule = "[2H]c1ccc2c(N3C[C@H](CN4CC(c5cccc(N6CC(C)(N)C6)n5)C4)O[C@H](C)C3)ccc(C#N)c2n1 [Example 159]"
assaytarget = "human TLR7 (Homo sapiens, UniProt Q9NYK1)"
metricname = "pIC50"
number = 7.52

[[record]]
molecule = "Cc1cc(N2CCN(C[C@H]3CN(c4ccc(C#N)c5ncccc45)C[C@@H](C)O3)CC2)nc(NC2CNCC2C#N)n1 (stereo partly drawn) [Example 57]"
assaytarget = "human TLR7 (Homo sapiens, UniProt Q9NYK1)"
metricname = "pIC50"
number = 7.57


I. C[C@@H]1CN(c2ccc(C#N)c3ncccc23)C[C@H](CN2CCN(c3ccc(N4CC(N)C(F)C4)nc3)CC2)O1 (stereo partly drawn) [Example 44]
II. C[C@@H]1CN(c2ccc(C#N)c3ncccc23)C[C@H](CN2CCN(c3ccnc(N4C[C@@H](N)[C@@H](F)C4)n3)CC2)O1 [Example 101]
Q. Which value of pIC50 is smaller, the one for I or the one for II ? I would appreciate it if you answered with the label of your choice.
A. I

---

# assayTarget: hERG channel (Homo sapiens, UniProt Q12809)
# Construct: expressed in transfected cells; host or cells: CHO (Chinese hamster ovary)
# Sequence (Q12809 whole entry): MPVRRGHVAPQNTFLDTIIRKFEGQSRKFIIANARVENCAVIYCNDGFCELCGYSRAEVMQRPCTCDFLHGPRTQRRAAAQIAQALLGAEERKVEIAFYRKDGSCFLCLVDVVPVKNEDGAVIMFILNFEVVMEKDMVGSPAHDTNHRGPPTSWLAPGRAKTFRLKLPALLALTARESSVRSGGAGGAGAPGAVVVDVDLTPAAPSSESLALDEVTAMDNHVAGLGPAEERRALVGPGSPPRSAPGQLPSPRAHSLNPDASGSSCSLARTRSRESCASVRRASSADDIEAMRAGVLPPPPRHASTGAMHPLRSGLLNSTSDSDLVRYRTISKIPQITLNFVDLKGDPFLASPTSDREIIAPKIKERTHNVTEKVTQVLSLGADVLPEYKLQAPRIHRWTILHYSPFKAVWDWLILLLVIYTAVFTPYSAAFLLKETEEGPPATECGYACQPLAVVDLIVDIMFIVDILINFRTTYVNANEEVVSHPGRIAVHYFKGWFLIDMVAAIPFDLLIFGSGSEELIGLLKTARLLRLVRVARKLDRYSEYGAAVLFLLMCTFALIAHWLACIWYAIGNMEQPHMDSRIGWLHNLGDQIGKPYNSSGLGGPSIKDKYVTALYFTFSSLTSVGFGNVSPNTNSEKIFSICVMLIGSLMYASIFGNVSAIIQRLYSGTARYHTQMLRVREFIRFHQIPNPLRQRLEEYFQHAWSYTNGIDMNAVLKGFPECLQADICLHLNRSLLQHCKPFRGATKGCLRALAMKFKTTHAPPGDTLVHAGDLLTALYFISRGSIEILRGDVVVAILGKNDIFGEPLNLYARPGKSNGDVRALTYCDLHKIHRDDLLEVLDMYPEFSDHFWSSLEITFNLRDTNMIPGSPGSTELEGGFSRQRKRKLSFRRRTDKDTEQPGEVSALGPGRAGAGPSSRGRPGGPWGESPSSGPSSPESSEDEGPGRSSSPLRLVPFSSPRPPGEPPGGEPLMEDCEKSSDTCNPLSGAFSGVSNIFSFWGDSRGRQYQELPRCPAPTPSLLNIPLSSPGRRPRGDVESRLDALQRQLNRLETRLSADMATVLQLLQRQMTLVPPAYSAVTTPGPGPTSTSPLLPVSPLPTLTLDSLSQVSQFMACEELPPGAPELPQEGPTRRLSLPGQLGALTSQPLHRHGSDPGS
# measurementProtocol: hERG channel inhibition assay (patch-clamp, CHOhERG cells)
# Format: cell-based
# settings: human, CHO cells stably expressing hERG (CHOhERG); patch-clamp, CHOhERG cells
metricName: IC20

Some solved cases for reference:
[[record]]
molecule = "C[C@@H]1CN(c2ccc(C#N)n3ncc(F)c23)C[C@H](CN2CCN(c3ccc(N4CC(C)(N)C4)nc3)CC2)O1 [Example 154]"
result = "> 10 µM"

[[record]]
molecule = "CO[C@H]1CN(c2cc(C)nc(N3CCN(C[C@H]4CN(c5ccc(C#N)c6nccnc56)C[C@@H](C)O4)CC3)n2)C[C@@H]1N [Example 104]"
result = "> 10 µM"

[[record]]
molecule = "C[C@@H]1CN(c2ccc(C#N)c3ncccc23)C[C@H](CN2CCN(c3cncc(N4CCNCC4)c3)CC2)O1 [Example 7]"
result = "> 10 µM"


Now for another entry.
Query C[C@@H]1CN(c2ccc(C#N)n3ncc(F)c23)C[C@H](CN2CCN(c3ccc(N[C@H]4CNC[C@H]4F)nc3)CC2)O1 [Example 167] yields IC20 of > 10 µM

The measurements presented in this section are drawn from patent US20210395239A1.
